# tested_system: ROR1 (antigen of the KD determination and of the Octet dissociation measurement) (UniProt Q01973 30-403, limits assumed)
# Sequence (Q01973 30-403 limits assumed): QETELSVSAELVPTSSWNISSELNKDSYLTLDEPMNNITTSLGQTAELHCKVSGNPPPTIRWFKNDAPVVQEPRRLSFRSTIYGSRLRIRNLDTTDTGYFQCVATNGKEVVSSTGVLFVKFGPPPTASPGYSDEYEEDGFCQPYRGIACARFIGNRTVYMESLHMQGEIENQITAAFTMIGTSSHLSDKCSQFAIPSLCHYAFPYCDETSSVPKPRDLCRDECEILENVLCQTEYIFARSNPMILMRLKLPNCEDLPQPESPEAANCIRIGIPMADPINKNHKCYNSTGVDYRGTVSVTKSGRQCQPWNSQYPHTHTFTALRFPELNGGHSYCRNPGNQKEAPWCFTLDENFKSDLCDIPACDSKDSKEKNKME
# assay_procedure: Octet, antigen form not stated
The entries below are paired with their reported koff.

Below are worked cases with known answers.
In: Dear colleague, I am looking for the recorded koff of the following binder: PR002564 (antibody, human IgG1, kappa, V domains shown, PR001354 variant: VH D54E; hIgG1; also called anti-ROR1 1015M2-C9(H: D54E) hIgG1) VH: QVQLVQSGGGVVQPGRSLRLSCAASGFTFSSYGMHWVRQAPGKGLEWVAIMWYEGSDKDYADSVKGRFTISRDTSKNTLYLQMNSLRAEDTAVYYCAREQARSFDLWGRGTLVTVSS VL: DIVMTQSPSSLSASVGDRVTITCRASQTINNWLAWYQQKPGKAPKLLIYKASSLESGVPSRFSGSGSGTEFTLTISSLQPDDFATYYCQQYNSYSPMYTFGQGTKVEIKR
Out: 0.000108 s⁻¹

In: # koff lookup, item PR002574 (antibody, human IgG1, kappa, V domains shown, PR001364 variant: VH D54E; hIgG1; also called anti-ROR1 1015M3-D8(H: D54E) hIgG1) VH: EVQLLESGGGVVQPGRSLRLSCAASGFTFSSFGMHWVRQAPGKGLEWVAVIWYEGSDKDYADSVKGRFTISRDTSKNTLYLQMNSLRAEDTAVYYCAREQARSFDLWGRGTLVTVSS VL: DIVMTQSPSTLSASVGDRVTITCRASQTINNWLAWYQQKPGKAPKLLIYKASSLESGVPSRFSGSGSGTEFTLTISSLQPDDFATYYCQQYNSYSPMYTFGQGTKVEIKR
Out: 0.000172 s⁻¹

In: Look at this binder and give its reported koff. PR002581 (antibody, human IgG1, kappa, V domains shown, PR001369 variant: VL S93A; hIgG1; also called anti-ROR1 1015M3-H10(L: S93A) hIgG1) VH: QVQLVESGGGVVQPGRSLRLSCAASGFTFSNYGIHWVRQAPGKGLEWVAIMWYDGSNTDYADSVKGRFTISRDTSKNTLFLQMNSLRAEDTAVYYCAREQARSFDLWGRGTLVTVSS VL: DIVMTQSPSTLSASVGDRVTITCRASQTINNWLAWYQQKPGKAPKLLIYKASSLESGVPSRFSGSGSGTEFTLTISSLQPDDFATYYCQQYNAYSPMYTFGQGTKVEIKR
Out: 6.73e-05 s⁻¹

Continuing:
In: Data request, read-out koff, for PR002562 (antibody, human IgG1, kappa, V domains shown, PR001354 variant: VL N92Q; hIgG1; also called anti-ROR1 1015M2-C9(L: N92Q) hIgG1) VH: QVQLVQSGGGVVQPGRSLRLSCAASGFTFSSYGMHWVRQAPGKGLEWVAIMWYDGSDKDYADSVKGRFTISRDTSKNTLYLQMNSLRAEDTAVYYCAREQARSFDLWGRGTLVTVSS VL: DIVMTQSPSSLSASVGDRVTITCRASQTINNWLAWYQQKPGKAPKLLIYKASSLESGVPSRFSGSGSGTEFTLTISSLQPDDFATYYCQQYQSYSPMYTFGQGTKVEIKR
Out: 0.000162 s⁻¹

In: Any idea what koff was measured for PR001369 (antibody, human IgG1, kappa, V domains shown, fully human IgG1, kappa; also called anti-ROR1 1015M3-H10 hIgG1; PR001369(WT)) VH: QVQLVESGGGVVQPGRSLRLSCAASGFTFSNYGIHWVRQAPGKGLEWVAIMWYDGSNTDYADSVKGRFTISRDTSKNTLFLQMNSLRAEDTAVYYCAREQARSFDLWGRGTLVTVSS VL: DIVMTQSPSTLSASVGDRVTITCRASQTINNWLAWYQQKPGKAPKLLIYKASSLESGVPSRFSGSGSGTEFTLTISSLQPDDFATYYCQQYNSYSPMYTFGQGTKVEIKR ?
Out: 0.00498 s⁻¹

Taken from patent US20240010721A1.
